Tested on: Alopecurus myosuroides (ALOMY)
Test: Glasshouse assay for herbicidal activity, pre-/post-emergence (percentage phytotoxicity)
Format: in vivo
Settings: Alopecurus myosuroides, 360 h; Rate 250 g/ha; post-emergence; visual assessment 15 DAA; 100%=total damage, 0%=no damage; read-out: Post-emergence herbicidal activity (percentage phytotoxicity), ALOMY POST
Test readout: pest or weed control at 250 g/ha (%)

>>> print(df.to_string())
                                    molecule  observed_measurement
 0  Cc1cc(C)c(C2C(=O)CC(CCNc3ccc(C(F)(F)F)cn3)C2=O)c(C)c1 (stereo not drawn) [Compound A34]                    90
 1  Cc1cc(C)c(C2C(=O)CC(CCNc3nc4ccc(Cl)cc4o3)C2=O)c(C)c1.Cl (stereo not drawn) [Compound A35]                    90
 2  Cc1cc(C)c(C2C(=O)CC(CCNc3ccc([N+](=O)[O-])cc3)C2=O)c(C)c1 (stereo not drawn) [Compound A105]                    90
 3  Cc1cc(-n2cc(Cl)cn2)cc(C)c1C1C(=O)CC(CCNC(=O)Nc2ccc(F)cn2)C1=O (stereo not drawn) [Compound A28]                    90
 4  Cc1cc(C)c(C2C(=O)CC(CCNC(=O)Nc3cc(C(C)(C)F)ncn3)C2=O)c(C)c1 (stereo not drawn) [Compound A16]                    90
 5  COc1ccc(C(=O)NC(=O)NCCC2CC(=O)C(c3c(C)cc(C)cc3C)C2=O)cc1 (stereo not drawn) [Compound A57]                    90
 6  Cc1cc(C)c(C2C(=O)CC(CCNC(N)=O)C2=O)c(C)c1 (stereo not drawn) [Compound A6]                    70
 7  Cc1cc(-c2ncc(Cl)cc2F)cc(C)c1C1C(=O)CC(CCNC(=O)N(C)c2ccccn2)C1=O.Cl (stereo not drawn) [Compound A27]                    90
 8  Cc1cc(C)c(C2C(=O)CC(CCNS(=O)(=O)c3cccs3)C2=O)c(C)c1 (stereo not drawn) [Compound A82]                    40
 9  Cc1cc(C)c(C2C(=O)CC(CCNS(=O)(=O)c3ccc(F)c(Cl)c3)C2=O)c(C)c1 (stereo not drawn) [Compound A75]                    60
10  COc1ccc(S(=O)(=O)NCCC2CC(=O)C(c3c(C)cc(C)cc3C)C2=O)cc1 (stereo not drawn) [Compound A79]                    30
11  Cc1cc(C)c(C2C(=O)CC(CCNC(=O)NC(=O)c3c(F)cc(Cl)cc3F)C2=O)c(C)c1 (stereo not drawn) [Compound A64]                    90
12  Cc1cc(C)c(C2C(=O)CC(CCNC(=S)Nc3ccc(F)cc3)C2=O)c(C)c1 (stereo not drawn) [Compound A89]                     0
13  Cc1cc(C)c(C2C(=O)CC(CCNC(=O)NC(=O)c3ccccc3C(F)(F)F)C2=O)c(C)c1 (stereo not drawn) [Compound A60]                   100
14  Cc1cc(C)c(C2C(=O)CC(CCNC(=O)Nc3ccc(Br)cn3)C2=O)c(C)c1.Cl (stereo not drawn) [Compound A4]                    90
